Reference for the values: patent US12528815B2

- Target Or Test System: human adenosine A1 receptor (Homo sapiens)
- Construct: expressed in transfected cells; host or cells: HEK293 cells infected with BacMam (the same paragraph also labels the preparation CHO-hA1)
- Sequence (P30542 whole entry): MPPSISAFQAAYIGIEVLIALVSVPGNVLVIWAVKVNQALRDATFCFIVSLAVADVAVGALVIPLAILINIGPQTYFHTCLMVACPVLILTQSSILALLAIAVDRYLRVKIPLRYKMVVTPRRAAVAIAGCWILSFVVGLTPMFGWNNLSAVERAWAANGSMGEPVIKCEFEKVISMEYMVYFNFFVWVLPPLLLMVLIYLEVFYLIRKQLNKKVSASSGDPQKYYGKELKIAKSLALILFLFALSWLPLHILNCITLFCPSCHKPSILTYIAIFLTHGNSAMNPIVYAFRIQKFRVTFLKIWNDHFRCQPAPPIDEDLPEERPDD
- Method: Inhibition binding assay, human adenosine A1 receptor membranes, [3H]DPCPX
- Recorded Conditions: 1 nM [3H]DPCPX, 25° C., 1 h; IC50 converted to Ki with Cheng-Prusoff; read-out: A1 pKi (converted)
Attribute Measured: Ki

>>> df
                                   compound                     target_or_test_system  assay_result
0  Cc1cc(-c2c(-c3ccc(F)cc3)nc(N)n3c(=O)n(Cc4ccc(F)c(N)n4)nc23)cc(CO)n1  human adenosine A1 receptor (Homo sapiens)        794 nM
1  Cc1cc(-c2c(-c3ccccc3)nc(N)n3c(=O)n(Cc4ccccc4C)nc23)cc(C)n1  human adenosine A1 receptor (Homo sapiens)          1 nM
2  Cc1cc(-c2c(-c3ccccc3)nc(N)n3c(=O)n(CCNC(=O)OC(C)(C)C)nc23)cc(C)n1  human adenosine A1 receptor (Homo sapiens)        794 nM
3  Cc1cc(-c2c(-c3ccccc3)nc(N)n3c(=O)n(CCC4CCN(C)CC4)nc23)cc(C)n1  human adenosine A1 receptor (Homo sapiens)        631 nM
4  Cc1cc(-c2c(-c3ccccc3)nc(N)n3c(=O)n(CC4CS(=O)(=O)C4)nc23)cc(C)n1  human adenosine A1 receptor (Homo sapiens)        794 nM
5  COC(=O)c1nc(N)n2c(=O)n(CCC(F)(F)F)nc2c1-c1cc(C)nc(C)c1  human adenosine A1 receptor (Homo sapiens)     > 3160 nM
6  Cc1cc(-c2c(-c3ccccc3)nc(N)n3c(=O)n(CC4CCNCC4)nc23)cc(C)n1  human adenosine A1 receptor (Homo sapiens)     > 3160 nM

* * *

- Target Or Test System: UniProt:P21554
- Sequence (P21554 whole entry): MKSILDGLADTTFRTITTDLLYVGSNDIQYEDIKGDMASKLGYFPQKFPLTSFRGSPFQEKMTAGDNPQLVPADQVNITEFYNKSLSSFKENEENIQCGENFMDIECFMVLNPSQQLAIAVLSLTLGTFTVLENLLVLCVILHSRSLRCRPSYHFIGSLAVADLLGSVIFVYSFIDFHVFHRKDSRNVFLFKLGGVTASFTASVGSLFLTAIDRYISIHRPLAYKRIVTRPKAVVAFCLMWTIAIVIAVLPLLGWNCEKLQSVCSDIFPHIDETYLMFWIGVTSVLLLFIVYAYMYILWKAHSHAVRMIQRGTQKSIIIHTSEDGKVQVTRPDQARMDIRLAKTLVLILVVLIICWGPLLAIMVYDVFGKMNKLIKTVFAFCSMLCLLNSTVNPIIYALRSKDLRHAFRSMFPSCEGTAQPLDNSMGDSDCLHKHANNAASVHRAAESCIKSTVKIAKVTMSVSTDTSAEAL
- Method: CB1 receptor antagonism, agonist-induced cAMP modulation (HTRF) in transfected CHO cells
- Recorded Conditions: read-out: Antag IC50
pIC50: −log10 of the molar value.
Attribute Measured: pIC50

In [3]: df
Out[3]:
                                   compound  attribute_measured  bound_type  assay_result
0  Cc1cc(-c2c(-c3ccccc3)nc(N)n3c(=O)n(CCc4ccccc4)nc23)cc(C)n1               pIC50           =          4.99
1  Cc1cc(-c2c(-c3ccccc3)nc(N)n3c(=O)n(Cc4ccc(F)cn4)nc23)cc(N2CCC2)n1               pIC50           =          4.75
2  Cc1cc(-c2c(-c3ccccc3)nc(N)n3c(=O)n(CC(=O)N(C)C)nc23)cc(C)n1               pIC50           <          4.00
3  Cc1cc(-c2c(-c3ccccn3)nc(N)n3c(=O)n(CCC(F)(F)F)nc23)cc(C)n1               pIC50           <          4.00
4  Cc1cc(-c2c(-c3ccccc3)nc(N)n3c(=O)n(CCC(F)(F)F)nc23)cc(C)n1               pIC50           =          4.58
5  Cc1cc(-c2c(-c3ccc(F)cc3)nc(N)n3c(=O)n(CCC(F)(F)F)nc23)cc(CO)n1               pIC50           =          4.43
6  Cc1cc(-c2c(-c3ccccc3)nc(N)n3c(=O)n(Cc4ccc(F)cc4)nc23)cc(C)n1               pIC50           =          5.77
7  Cc1cc(-c2c(-c3ccccc3)nc(N)n3c(=O)n(C[C@H]4CNCCO4)nc23)cc(C)n1               pIC50           <          4.00
8  Cc1cc(-c2c(-c3ccccc3)nc(N)n3c(=O)n(CC4CCOCC4)nc23)cc(C)n1               pIC50           <          4.00

* * *

- Target Or Test System: human adenosine A1 receptor (Homo sapiens)
- Construct: expressed in transfected cells; host or cells: HEK293 cells infected with BacMam (the same paragraph also labels the preparation CHO-hA1)
- Method: Inhibition binding assay, human adenosine A1 receptor membranes, [3H]DPCPX
- Recorded Conditions: 1 nM [3H]DPCPX, 25° C., 1 h; IC50 converted to Ki with Cheng-Prusoff; read-out: A1 pKi (converted)
Attribute Measured: Ki (µM)

In [3]: df
Out[3]:
                                   molecule                     target_or_test_system  attribute_measured  bound_type  assay_result
0  Cc1cc(-c2c(-c3ccccc3)nc(N)n3c(=O)n(CCOC(F)(F)F)nc23)cc(C)n1  human adenosine A1 receptor (Homo sapiens)                  Ki           =         0.251
1  Cc1cc(-c2c(-c3ccccc3)nc(N)n3c(=O)n(CCNC(C)c4nnc5ncccn45)nc23)cc(C)n1 (stereo not shown)  human adenosine A1 receptor (Homo sapiens)                  Ki           >          3.98
2  COCCn1nc2c(-c3cc(C)nc(C)c3)c(-c3ccccc3)nc(N)n2c1=O  human adenosine A1 receptor (Homo sapiens)                  Ki           =         0.251
3  Cc1cc(-c2c(-c3ccccc3)nc(N)n3c(=O)n(CC4CCCOC4)nc23)cc(CO)n1 (single isomer, unassigned) [Example 2-92-iso-1]  human adenosine A1 receptor (Homo sapiens)                  Ki           =         0.251

* * *

- Target Or Test System: human adenosine A2A receptor (Homo sapiens)
- Construct: expressed in transfected cells; host or cells: HEK293 cells infected with BacMam
- Sequence (P29274 whole entry): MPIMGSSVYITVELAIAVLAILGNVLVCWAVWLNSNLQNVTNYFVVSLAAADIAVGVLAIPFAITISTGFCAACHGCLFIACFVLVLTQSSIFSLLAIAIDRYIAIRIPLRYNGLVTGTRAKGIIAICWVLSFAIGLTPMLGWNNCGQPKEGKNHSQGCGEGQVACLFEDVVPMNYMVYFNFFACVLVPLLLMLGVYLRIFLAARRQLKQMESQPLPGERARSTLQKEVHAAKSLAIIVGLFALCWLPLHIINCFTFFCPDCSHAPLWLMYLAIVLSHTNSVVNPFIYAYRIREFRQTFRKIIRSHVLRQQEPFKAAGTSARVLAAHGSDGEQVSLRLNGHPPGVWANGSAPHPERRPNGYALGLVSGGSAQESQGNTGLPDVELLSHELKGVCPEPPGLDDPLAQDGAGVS
- Method: Inhibition binding assay, human adenosine A2A receptor membranes, [3H]ZM241385
- Recorded Conditions: 1 nM [3H]ZM241385, HEK293-hA2A membranes, 25° C., 1 h; IC50 converted to Ki with Cheng-Prusoff; read-out: A2A pKi (converted)
Each entry falls into one class according to its Ki; the ranges are class 1 = under 0.6 nM, class 2 = from 0.6 nM up to 20 nM, class 3 = 20 nM and over

                                    compound  class_assignment
 0  Cc1cc(-c2c(-c3ccccc3)nc(N)n3c(=O)n(C[C@@H]4CN(C)CCN4C)nc23)cc(C)n1 [Example 2-87]           class 3
 1  Nc1nc(Cn2nc3c(-c4cc(Cl)nc(CO)c4)c(-c4ccccc4)nc(N)n3c2=O)ccc1F [Example 1-70]           class 1
 2  COc1ccc(Cn2nc3c(-c4cc(C)nc(C)c4)c(-c4ccccc4)nc(N)n3c2=O)cc1 [Example 1-3]           class 2
 3  Cc1cc(-c2c(-c3ccc(F)cc3)nc(N)n3c(=O)n(C)nc23)cc(Cl)n1 [Example 2-49]           class 3
 4  Cc1cc(-c2c(-c3ccccc3)nc(N)n3c(=O)n(C[C@@H]4COCCN4Cc4ccccc4)nc23)cc(C)n1 [Example 1-101]           class 2
 5  Cc1cc(-c2c(-c3ccccc3)nc(N)n3c(=O)n(CCC(N)=O)nc23)cc(C)n1 [Example 2-31]           class 3
 6  Cc1cc(-c2c(-c3ccccc3)nc(N)n3c(=O)n(CC45C6C7C8C6C4C8C75)nc23)cc(CO)n1 (stereo not drawn) [Example 2-62]           class 1
 7  Cc1cc(-c2c(-c3ccccc3)nc(N)n3c(=O)n(Cc4ccc(F)c(N)n4)nc23)cc(C)n1 [Example 1-36]           class 1
 8  Cc1cc(-c2c(-c3ccccc3)nc(N)n3c(=O)n(Cc4cccnn4)nc23)cc(CO)n1 [Example 1-56]           class 2
 9  Cc1cc(-c2c(-c3ccccc3)nc(N)n3c(=O)n(CCCF)nc23)cc(C)n1 [Example 2-8]           class 2
10  COC(=O)c1cc(-c2c(-c3ccccc3)nc(N)n3c(=O)n(CCC(F)(F)F)nc23)cc(C)n1 [Example 2-52]           class 2
11  Cc1cc(-c2c(-c3ccccc3)nc(N)n3c(=O)n(CC4CCCCO4)nc23)cc(CO)n1 (single isomer, unassigned) [Example 2-91-iso-1]           class 2
12  COc1ccc(Cn2nc3c(-c4cc(C)nc(C)c4)c(-c4ccccc4)nc(N)n3c2=O)nn1 [Example 1-33]           class 3
13  Cc1cc(-c2c(-c3ccccc3)nc(N)n3c(=O)n(Cc4cccnn4)nc23)cc(C)n1 [Example 1-5]           class 2
